Overview of reported %inh 5-HT7 exp_2 across a group of molecules:
# system_tested: human 5-HT7b receptor (Homo sapiens, UniProt P34969)
# Construct: expressed in transfected cells
# Sequence (P34969 1-432): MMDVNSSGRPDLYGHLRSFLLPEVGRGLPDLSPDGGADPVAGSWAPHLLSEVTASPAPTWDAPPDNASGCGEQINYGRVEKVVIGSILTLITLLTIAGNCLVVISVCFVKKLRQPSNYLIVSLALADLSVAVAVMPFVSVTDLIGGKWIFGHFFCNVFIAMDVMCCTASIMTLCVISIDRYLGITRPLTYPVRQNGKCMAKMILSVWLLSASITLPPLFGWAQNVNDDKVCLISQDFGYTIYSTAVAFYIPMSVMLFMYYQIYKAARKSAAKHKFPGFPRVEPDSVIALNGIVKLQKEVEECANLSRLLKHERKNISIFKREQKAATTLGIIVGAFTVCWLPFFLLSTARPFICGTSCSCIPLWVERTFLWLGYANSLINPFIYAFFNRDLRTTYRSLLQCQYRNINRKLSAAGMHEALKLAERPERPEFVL
# test_protocol: GPCR radioligand binding assay, [3H]-5-CT displacement, HEK293 membranes
# study_conditions: 5-HT7; replicate exp_2
endpoint_label: %inh 5-HT7 exp_2 (%)

molecule: Cc1ccc(-c2ccc(O)cc2)cc1 [D7]
endpoint_label: %inh 5-HT7 exp_2
endpoint_result: -17
--
molecule: Fc1ccc2c(C3CCNCC3)c[nH]c2c1 [H4]
endpoint_label: %inh 5-HT7 exp_2
endpoint_result: 78
--
molecule: Cc1cc(-c2ccccc2)n[nH]1 [A8]
endpoint_label: %inh 5-HT7 exp_2
endpoint_result: 32
--
molecule: O=C(O)CC1CCC(=O)N1 (centres unmarked) [H2]
endpoint_label: %inh 5-HT7 exp_2
endpoint_result: 9
--
molecule: O=C(Nc1ccccc1)C1CC1 [F6]
endpoint_label: %inh 5-HT7 exp_2
endpoint_result: -4
--
molecule: O=C(c1ccncc1)N1CCNCC1 [E2]
endpoint_label: %inh 5-HT7 exp_2
endpoint_result: 5
--
molecule: NC(c1ccccc1)c1ccccc1 [C3]
endpoint_label: %inh 5-HT7 exp_2
endpoint_result: -1
--
molecule: O=C1CCN(c2ccccn2)CC1 [G8]
endpoint_label: %inh 5-HT7 exp_2
endpoint_result: 24
--
molecule: O=C1NC2(CCCC2)Nc2ccccc21 [C9]
endpoint_label: %inh 5-HT7 exp_2
endpoint_result: 13
--
molecule: Cc1nccn1Cc1cccc(C#N)c1 [F8]
endpoint_label: %inh 5-HT7 exp_2
endpoint_result: 3.57
--
molecule: O=C1CSC(Nc2ccc(F)cc2)=N1 [H10]
endpoint_label: %inh 5-HT7 exp_2
endpoint_result: -10
--
molecule: O=C1CCC(=O)N(c2ccccc2)N1 [H7]
endpoint_label: %inh 5-HT7 exp_2
endpoint_result: 21
--
molecule: O=C(O)c1cccc(Nc2ncccn2)c1 [F5]
endpoint_label: %inh 5-HT7 exp_2
endpoint_result: 13
--
molecule: CC1(C)OC(=O)c2cc(Br)c(O)cc2O1 [C6]
endpoint_label: %inh 5-HT7 exp_2
endpoint_result: 0
